In this section we review reported Weight reduction temperature 5% values for a set of compounds.
METHOD_SUMMARY: Thermal stability, TG/DTA measurement
SETTINGS: air 200 mL/min, 30° C. to 600° C., heating rate 10° C./min
Give the number; °C is assumed, so skip it.

// known answers, use as guide
1) CCCCCCCCCCCCCC[N+](C)(C)CCCO.O=S(=O)([N-]S(=O)(=O)C(F)(F)C(F)(F)C(F)(F)C(F)(F)F)C(F)(F)C(F)(F)C(F)(F)C(F)(F)F: 340.0
2) CCCCCCCCCCCCCCCCCCn1ccnc1CCCCCCCCCCCCCCCCC.O=S1(=O)NS(=O)(=O)C(F)(F)C(F)(F)C1(F)F [Comparative Example 7A, reference compound]: 303.7
3) CCCCCCCCCCCCCCCCCC[n+]1ccn(CCCC)c1.O=S1(=O)[N-]S(=O)(=O)C(F)(F)C(F)(F)C1(F)F [Comparative Example 2A, reference compound]: 347.2
4) CCCCCCCCCCCCCCCCCCN.O=S(=O)(NS(=O)(=O)C(F)(F)C(F)(F)C(F)(F)C(F)(F)F)C(F)(F)C(F)(F)C(F)(F)C(F)(F)F [Comparative Example 8A, reference compound]: 311.8
5) CCCCCCCCCCCCCCCCCCC1CCCCN2CCCN=C12.O=S1(=O)NS(=O)(=O)C(F)(F)C(F)(F)C1(F)F (stereo not shown) [Comparative Example 4A, reference compound]: 346.3

Query: Which Weight reduction temperature 5% value belongs to CCCCCCCCCCCCCCCCCC[n+]1ccn(CCCO)c1.O=S(=O)([N-]S(=O)(=O)C(F)(F)C(F)(F)C(F)(F)C(F)(F)F)C(F)(F)C(F)(F)C(F)(F)C(F)(F)F ?
Response: 327.7

Query: Which Weight reduction temperature 5% value belongs to CCCCCCCCCCCCCCCCCC[N+](C)(C)CCCO.O=S(=O)([N-]S(=O)(=O)C(F)(F)C(F)(F)C(F)(F)C(F)(F)F)C(F)(F)C(F)(F)C(F)(F)C(F)(F)F [Example 10A] ?
Response: 336.5

Query: Which Weight reduction temperature 5% value belongs to CCCCCCCCCCCCCCCCCCC1CCCCN2CCC[N+](CCCO)=C12.O=S(=O)([N-]S(=O)(=O)C(F)(F)C(F)(F)C(F)(F)C(F)(F)F)C(F)(F)C(F)(F)C(F)(F)C(F)(F)F (stereo not shown) ?
Response: 326.2

Query: Which Weight reduction temperature 5% value belongs to CCCCCCCCCCCCCCCCCC[N+]1(CCCO)CCCC1.O=S(=O)([N-]S(=O)(=O)C(F)(F)C(F)(F)C(F)(F)C(F)(F)F)C(F)(F)C(F)(F)C(F)(F)C(F)(F)F ?
Response: 349.8

Query: Which Weight reduction temperature 5% value belongs to CCCCCCCCCCCCCCCCCC[n+]1ccn(CCCO)c1CCCCCCCCCCCCCCCCC.O=S(=O)([N-]S(=O)(=O)C(F)(F)C(F)(F)C(F)(F)C(F)(F)F)C(F)(F)C(F)(F)C(F)(F)C(F)(F)F ?
Response: 327.8

These measurements were taken from patent US20190051326A1.
